test system: recombinant NL-Rluc virus (NL4-3 with Renilla Luciferase gene) in MT-2 cells; test: Inhibition of HIV replication (NL-Rluc luciferase reporter virus, MT-2 cells); assay type: cell-based, human immunodeficiency virus (HIV); conditions: NL43, 120 h, read-out: Activity
Structures can show the parent of a compound that is named as a salt.
experimental.readout: EC50

Cc1ccc(-c2c(C(OC(C)(C)C)C(=O)O)c(C)nc3cc(-c4ccccc4)nn23)c(Cl)c1 (stereo not shown) ... 0.1 to 1 µM
COc1ccccc1-c1c(C(OC(C)(C)C)C(=O)O)c(C)nc2cc(-c3ccccc3)nn12 (stereo not shown) ... > 1 µM
Cc1cc(F)ccc1-c1c(C(OC(C)(C)C)C(=O)O)c(C)nc2cc(-c3ccccc3)nn12 (stereo not shown) ... > 1 µM
Cc1nc2cc(-c3cccc(Cl)c3)nn2c(C2CCCCC2)c1[C@H](OC(C)(C)C)C(=O)O ... > 1 µM
Cc1nc2cc(-c3ccccc3)nn2c(-c2cccc(Cl)c2Cl)c1C(OC(C)(C)C)C(=O)O (stereo not shown) ... > 1 µM
Cc1nc2cc(-c3ccc4c(c3)CCCC4)nn2c(-c2ccc3c4c(ccnc24)CCO3)c1[C@H](OC(C)(C)C)C(=O)O ... > 1 µM
Cc1nc2c(C)c(-c3cccc(-c4ccccc4F)c3)nn2c(-c2cc(F)c3c(c2C)CCCO3)c1[C@H](OC(C)(C)C)C(=O)O ... < 0.1 µM
Cc1nc2cc(-c3ccccc3)nn2c(-c2ccc(Cl)cc2Cl)c1C(OC(C)(C)C)C(=O)O (stereo not shown) ... > 1 µM
CCC(C)c1ccc(-c2c(C(OC(C)(C)C)C(=O)O)c(C)nc3cc(-c4ccccc4)nn23)cc1 (stereo not shown) ... > 1 µM
Cc1nc2cc(-c3ccc(OCc4ccccc4)nc3)nn2c(-c2cc(F)c3c(c2C)CCCO3)c1C(OC(C)(C)C)C(=O)O (stereo not shown) [Example 108, TFA salt] ... < 0.1 µM
Cc1nc2cc(-c3ccc(OCc4ccccc4)cc3)nn2c(-c2cc(F)c3c(c2C)CCCO3)c1C(OC(C)(C)C)C(=O)O (stereo not shown) [Example 95, TFA salt] ... < 0.1 µM
Cc1nc2cc(-c3ccnc(F)c3)nn2c(-c2cc(F)c3c(c2C)CCCO3)c1C(OC(C)(C)C)C(=O)O (stereo not shown) [Example 109, TFA salt] ... 0.1 to 1 µM
Cc1cc(-c2cccc(-c3cc4nc(C)c([C@H](OC(C)(C)C)C(=O)O)c(-c5cc(F)c6c(c5C)CCCO6)n4n3)c2)ccn1 ... < 0.1 µM
Cc1nc2cc(-c3cccc(-c4ccccc4)c3)nn2c(-c2cc(F)c3c(c2C)CCCO3)c1[C@H](OC(C)(C)C)C(=O)O ... < 0.1 µM
Cc1nc2cc(-c3cccc(-c4ccncc4)c3)nn2c(-c2cc(F)c3c(c2C)CCCO3)c1[C@H](OC(C)(C)C)C(=O)O [Example 121, TFA salt] ... < 0.1 µM
Cc1ccc(-c2c([C@H](OC(C)(C)C)C(=O)O)c(C)nc3cc(-c4ccc5c(c4)CCCC5)nn23)c(Cl)c1 ... > 1 µM
COc1cc(F)c(-c2c(C(OC(C)(C)C)C(=O)O)c(C)nc3cc(-c4ccccc4)nn23)cc1F (stereo not shown) ... > 1 µM
Cc1nc2cc(-c3cccc(Cl)c3)nn2c(CC(C)C)c1[C@H](OC(C)(C)C)C(=O)O ... > 1 µM
Cc1nc2c(-c3cccc(OCc4ccc(F)cc4)c3)c(-c3ccccc3)nn2c(-c2cc(F)c3c(c2C)CCCO3)c1[C@H](OC(C)(C)C)C(=O)O ... > 1 µM
